Tested on: 3D7 Plasmodium falciparum parasites
Assay: Ex vivo P. falciparum (3D7) inhibition assay
Type: cell-based
Conditions: 3D7, Pf3D7 parasites, 72 hours, errors SD, N ≥ 3, read-out: EC50 (3D7)
Kindly supply the reported EC50 values for the records listed here.
Reply numerically in µM, unit not repeated.

Req: Reported EC50, compound `C#Cc1ccc(-c2ccnc3[nH]c(-c4cc(CN(CC)CC)ccc4OC)cc23)cc1C=O` : ____
Resp: 2.27

Req: Reported EC50, compound `CCN(CC)Cc1ccc(OC)c(-c2cc3c(-c4ccc(O)c(C=O)c4)ccnc3[nH]2)c1` : ____
Resp: 6.35

Req: Reported EC50, compound `CCN(CC)Cc1ccc(OC)c(-c2cnc3[nH]cc(-c4ccc(O)c(C=O)c4)c3c2)c1` : ____
Resp: 3.26

Req: Reported EC50, compound `C#Cc1ccc(-c2c[nH]c3ncc(-c4cc(CN(CC)CC)ccc4OC)cc23)cc1C=O` : ____
Resp: 4.35

###

Target: human (h)CLK2 (Homo sapiens, UniProt P49760)
Sequence (P49760 whole entry): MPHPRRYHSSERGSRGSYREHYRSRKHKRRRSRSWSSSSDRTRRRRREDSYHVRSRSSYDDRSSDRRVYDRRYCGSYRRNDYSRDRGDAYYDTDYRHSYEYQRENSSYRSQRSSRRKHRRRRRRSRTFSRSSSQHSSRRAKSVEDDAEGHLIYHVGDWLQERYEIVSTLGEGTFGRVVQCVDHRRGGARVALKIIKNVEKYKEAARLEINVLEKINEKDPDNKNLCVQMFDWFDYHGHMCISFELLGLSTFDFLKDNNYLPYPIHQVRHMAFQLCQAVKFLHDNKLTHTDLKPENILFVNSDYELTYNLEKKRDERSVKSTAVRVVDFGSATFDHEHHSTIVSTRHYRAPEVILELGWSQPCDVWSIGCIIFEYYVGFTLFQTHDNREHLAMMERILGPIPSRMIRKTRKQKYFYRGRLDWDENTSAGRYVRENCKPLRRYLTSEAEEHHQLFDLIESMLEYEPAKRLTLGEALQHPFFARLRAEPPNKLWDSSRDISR
Assay: Selectivity kinase assay against hCLK2
Format: biochemical
Conditions: errors SD, N ≥ 3; read-out: IC50 (hCLK2)
Source text: Given this work aims to target a conserved residue, selectivity must be derived from the reversible ligand rather than the covalent interaction.
Kindly supply the reported IC50 values for the records listed here.
Reply numerically in nM, unit not repeated.

Req: Reported IC50, compound C#Cc1ccc(-c2ccnc3[nH]c(-c4cc(CN(CC)CC)ccc4OC)cc23)cc1C=O [Compound 8] : ____
Resp: 69

Req: Reported IC50, compound CCN(CC)Cc1ccc(OC)c(-c2cc3c(-c4ccc(O)c(C=O)c4)ccnc3[nH]2)c1 [Compound 4] : ____
Resp: 104

###

Tested on: 3D7 Plasmodium falciparum parasites
Assay: Ex vivo P. falciparum (3D7) inhibition assay
Format: cell-based
Conditions: 3D7, 72 h, read-out: EC50 (3D7)
property: EC50 (nM)
Reply numerically in nM, unit not repeated.

Req: Reported EC50, compound CCN(CC)Cc1ccc(OC)c(-c2cc3c(-c4ccc(C(=O)O)c(C(C)C)c4)ccnc3[nH]2)c1 [Compound 1, TCMDC-135051, reference compound] : ____
Resp: 266

###

Tested on: PfCLK3 kinase domain (amino acid residues 334–699)
Assay: Intact protein LC-MS for covalent adduct formation
Format: binding, Plasmodium falciparum
Settings: pH 7.4, 1:5 protein to compound, 4 hours room temperature, compound 4 with C-terminal His-tag construct
property: Relative Ratio, assignment apo
Hey, just send me the number, nothing else.

Req: Given the entry `CCN(CC)Cc1ccc(OC)c(-c2cnc3[nH]cc(-c4ccc(O)c(C=O)c4)c3c2)c1` , what Relative Ratio, assignment apo was observed with PfCLK3 kinase domain (amino acid residues 334–699)?
Resp: 68

Req: Given the entry `C=CC(=O)Nc1ccc(-c2ccnc3[nH]c(-c4cc(CN(CC)CC)ccc4OC)cc23)cc1` , what Relative Ratio, assignment apo was observed with PfCLK3 kinase domain (amino acid residues 334–699)?
Resp: 100

Req: Given the entry `CCN(CC)Cc1ccc(OC)c(-c2cc3c(-c4ccc(C=O)c(O)c4)ccnc3[nH]2)c1` , what Relative Ratio, assignment apo was observed with PfCLK3 kinase domain (amino acid residues 334–699)?
Resp: 100

Req: Given the entry `CCN(CC)Cc1ccc(OC)c(-c2cnc3[nH]cc(-c4ccc(C=O)c(O)c4)c3c2)c1` , what Relative Ratio, assignment apo was observed with PfCLK3 kinase domain (amino acid residues 334–699)?
Resp: 100

Req: Given the entry `C=CC(=O)Nc1ccc(-c2c[nH]c3ncc(-c4cc(CN(CC)CC)ccc4OC)cc23)cc1` , what Relative Ratio, assignment apo was observed with PfCLK3 kinase domain (amino acid residues 334–699)?
Resp: 100

Req: Given the entry `CCN(CC)Cc1ccc(OC)c(-c2cc3c(-c4ccc(O)c(C=O)c4)ccnc3[nH]2)c1` , what Relative Ratio, assignment apo was observed with PfCLK3 kinase domain (amino acid residues 334–699)?
Resp: 40

Req: Given the entry `CCN(CC)Cc1ccc(OC)c(-c2cnc3[nH]cc(-c4ccc(S(=O)(=O)F)cc4)c3c2)c1` , what Relative Ratio, assignment apo was observed with PfCLK3 kinase domain (amino acid residues 334–699)?
Resp: 100

Req: Given the entry `CCN(CC)Cc1ccc(OC)c(-c2cc3c(-c4ccc(S(=O)(=O)F)cc4)ccnc3[nH]2)c1` , what Relative Ratio, assignment apo was observed with PfCLK3 kinase domain (amino acid residues 334–699)?
Resp: 100

###

Target: recombinant PfCLK3 (Plasmodium falciparum)
Assay: TR-FRET kinase assay at Km ATP
Format: biochemical
Conditions: pIC50, Km ATP (5 μM), 2 hour incubation; errors SD, N ≥ 3; * concentration response curve not complete
property: log10 of IC50 (log10 of the value in nM)
All values: base-10 log of IC50 in nM.

Req: Reported log10 of IC50, compound CCN(CC)Cc1ccc(OC)c(-c2cc3c(-c4ccc(C=O)c(O)c4)ccnc3[nH]2)c1 [Compound 6] : ____
Resp: 2.19

Req: Reported log10 of IC50, compound CCN(CC)Cc1ccc(OC)c(-c2cc3c(-c4ccc(C(=O)O)c(C(C)C)c4)ccnc3[nH]2)c1 [Compound 1, TCMDC-135051, reference compound] : ____
Resp: 1.24

Req: Reported log10 of IC50, compound C#Cc1ccc(-c2c[nH]c3ncc(-c4cc(CN(CC)CC)ccc4OC)cc23)cc1C=O [Compound 9] : ____
Resp: 1.22

Req: Reported log10 of IC50, compound CCN(CC)Cc1ccc(OC)c(-c2cnc3[nH]cc(-c4ccc(S(=O)(=O)F)cc4)c3c2)c1 [Compound 3] : ____
Resp: 2.48

Req: Reported log10 of IC50, compound CCN(CC)Cc1ccc(OC)c(-c2cc3c(-c4ccc(S(=O)(=O)F)cc4)ccnc3[nH]2)c1 [Compound 2] : ____
Resp: 1.92

Req: Reported log10 of IC50, compound C=CS(=O)(=O)Nc1ccc(-c2c[nH]c3ncc(-c4cc(CN(CC)CC)ccc4OC)cc23)cc1 [Compound 11] : ____
Resp: 2.95

Req: Reported log10 of IC50, compound CCN(CC)Cc1ccc(OC)c(-c2cnc3[nH]cc(-c4ccc(O)c(C=O)c4)c3c2)c1 [Compound 5] : ____
Resp: 1.29

Req: Reported log10 of IC50, compound C#Cc1ccc(-c2ccnc3[nH]c(-c4cc(CN(CC)CC)ccc4OC)cc23)cc1C=O [Compound 8] : ____
Resp: 1.46

Req: Reported log10 of IC50, compound C=CC(=O)Nc1ccc(-c2c[nH]c3ncc(-c4cc(CN(CC)CC)ccc4OC)cc23)cc1 [Compound 13] : ____
Resp: 3.30

Req: Reported log10 of IC50, compound CCN(CC)Cc1ccc(OC)c(-c2cc3c(-c4ccc(O)c(C=O)c4)ccnc3[nH]2)c1 [Compound 4] : ____
Resp: 1.21

Req: Reported log10 of IC50, compound CCN(CC)Cc1ccc(OC)c(-c2cnc3[nH]cc(-c4ccc(C=O)c(O)c4)c3c2)c1 [Compound 7] : ____
Resp: 1.92

###

Target: recombinant PfCLK3 (Plasmodium falciparum, UniProt Q8IIL5)
Sequence (Q8IIL5 entry or part of it): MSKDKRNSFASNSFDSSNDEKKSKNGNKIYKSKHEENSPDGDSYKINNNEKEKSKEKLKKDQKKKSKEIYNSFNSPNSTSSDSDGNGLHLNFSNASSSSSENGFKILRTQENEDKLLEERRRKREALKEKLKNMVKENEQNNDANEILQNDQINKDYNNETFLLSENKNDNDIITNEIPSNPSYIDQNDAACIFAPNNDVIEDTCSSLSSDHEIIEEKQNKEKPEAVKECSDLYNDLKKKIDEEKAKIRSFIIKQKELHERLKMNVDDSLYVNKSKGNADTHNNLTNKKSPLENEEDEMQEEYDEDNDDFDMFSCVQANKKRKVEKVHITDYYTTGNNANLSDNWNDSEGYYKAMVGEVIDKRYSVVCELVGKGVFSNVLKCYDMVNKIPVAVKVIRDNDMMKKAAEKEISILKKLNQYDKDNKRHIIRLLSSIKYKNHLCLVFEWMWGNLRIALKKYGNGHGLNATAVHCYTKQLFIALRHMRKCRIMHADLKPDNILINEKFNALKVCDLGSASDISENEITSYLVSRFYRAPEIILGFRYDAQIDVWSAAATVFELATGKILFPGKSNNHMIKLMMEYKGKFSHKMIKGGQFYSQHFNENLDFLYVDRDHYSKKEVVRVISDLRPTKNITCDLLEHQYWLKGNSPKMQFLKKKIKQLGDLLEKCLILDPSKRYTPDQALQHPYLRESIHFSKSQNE
Assay: TR-FRET kinase assay at Km ATP
Type: biochemical
Conditions: IC50 (apparent), Km ATP (5 μM), 2 hour incubation; errors SD, N ≥ 3; * concentration response curve not complete
property: pIC50
Please express pIC50 as -log10 of the molar concentration.

Req: Reported pIC50, molecule `C#Cc1ccc(-c2ccnc3[nH]c(-c4cc(CN(CC)CC)ccc4OC)cc23)cc1C=O` : ____
Resp: 7.54

Req: Reported pIC50, molecule `CCN(CC)Cc1ccc(OC)c(-c2cc3c(-c4ccc(O)c(C=O)c4)ccnc3[nH]2)c1` : ____
Resp: 7.80

Req: Reported pIC50, molecule `C=CS(=O)(=O)Nc1ccc(-c2c[nH]c3ncc(-c4cc(CN(CC)CC)ccc4OC)cc23)cc1` : ____
Resp: 6.05

Req: Reported pIC50, molecule `CCN(CC)Cc1ccc(OC)c(-c2cc3c(-c4ccc(S(=O)(=O)F)cc4)ccnc3[nH]2)c1` : ____
Resp: 7.08

###

Test: Human cell viability assay (resazurin)
Settings: CC50 (HepG2), HepG2, 48 hours, errors SD, N ≥ 3
Procedure: Cytotoxicity was assessed in HepG2 cells to complement the selectivity evaluations (Fig. 7). […] Human cell viability assay. Mycoplasma tested HepG2 cells were cultured in Dulbecco’s Modified Eagle Medium (DMEM) with 10% fetal bovine serum, 1% non-essential AA, 1% sodium pyruvate, 1% Pen- strep and 100ug/mL Normocin. […] the assay plates which were then incubated for 4 hours and analysed using a ClariostarTM plate reader to measure fluorescence Intensity (545-20nm/600-40nm). […]
Label YES when CC50 at 48 h is strictly below 8 µM; at or above that, label NO.

Req: Consider the compound `CCN(CC)Cc1ccc(OC)c(-c2cnc3[nH]cc(-c4ccc(O)c(C=O)c4)c3c2)c1` . Is its CC50 at 48 h strictly less than 8 µM?
Resp: YES

Req: Consider the compound `C#Cc1ccc(-c2ccnc3[nH]c(-c4cc(CN(CC)CC)ccc4OC)cc23)cc1C=O` . Is its CC50 at 48 h strictly less than 8 µM?
Resp: NO

Req: Consider the compound CCN(CC)Cc1ccc(OC)c(-c2cc3c(-c4ccc(C(=O)O)c(C(C)C)c4)ccnc3[nH]2)c1 [Compound 1, TCMDC-135051, reference compound] . Is its CC50 at 48 h strictly less than 8 µM?
Resp: YES

Req: Consider the compound `CCN(CC)Cc1ccc(OC)c(-c2cc3c(-c4ccc(O)c(C=O)c4)ccnc3[nH]2)c1` . Is its CC50 at 48 h strictly less than 8 µM?
Resp: YES
